Origin of values: patent US12398155B2

molecular target: human FGFR3 wild type enzyme (cytoplasmic domain) (Homo sapiens, UniProt P22607)
Sequence (P22607 397-806 limits assumed): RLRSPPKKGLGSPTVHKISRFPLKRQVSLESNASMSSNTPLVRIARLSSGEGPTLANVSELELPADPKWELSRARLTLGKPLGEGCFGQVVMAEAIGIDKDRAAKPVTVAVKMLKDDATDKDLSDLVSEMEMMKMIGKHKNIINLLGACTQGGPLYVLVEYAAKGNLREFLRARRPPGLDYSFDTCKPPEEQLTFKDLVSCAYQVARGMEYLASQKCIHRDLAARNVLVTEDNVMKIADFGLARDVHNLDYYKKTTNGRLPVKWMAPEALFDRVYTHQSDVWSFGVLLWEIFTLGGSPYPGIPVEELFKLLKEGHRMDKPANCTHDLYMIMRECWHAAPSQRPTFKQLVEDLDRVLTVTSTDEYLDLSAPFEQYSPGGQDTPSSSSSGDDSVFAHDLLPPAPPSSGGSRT
// assign rule met if IC50 falls strictly below 0.009 µM, else rule not met (ties count as rule not met)

* COCC(Nc1c(-c2nc3cnc(N4C[C@@H](C)O[C@@H](C)C4)cc3[nH]2)c(=O)[nH]c2ccsc12)c1ncccn1 (single isomer, unassigned) | rule not met
* COC[C@@H](Nc1c(-c2nc3ccc(N4C[C@@H](C)O[C@@H](C)C4)nc3[nH]2)c(=O)[nH]c2ccsc12)c1ncccn1 (single isomer, unassigned) | rule not met
* C[C@H](Nc1c(-c2nc3cnc(N4CCOCC4)cc3[nH]2)c(=O)[nH]c2ccsc12)c1ncccn1 | rule met
* C[C@@H](Nc1c(-c2nc3cnc(N4CCOCC4)cc3[nH]2)c(=O)[nH]c2ccsc12)c1ncccn1 | rule not met

---

molecular target: NIH/3T3 cells overexpressing FGFR3 V555M-TACC3 fusion protein (Homo sapiens, UniProt P22607, V555M, cells depend on it); construct: NIH/3T3 FGFR3 V555M-TACC3 CTG; other: 72-hr incubation, CellTiter Glo; fused on or other part: C-terminal part of TACC3 (coiled-coil) fused behind the FGFR3 kinase domain; Q9Y6A5 (Transforming acidic coiled-coil-containing protein 3); test: NIH/3T3 FGFR3 V555M-TACC3 cell proliferation assay; type: cell-based; conditions: 72-hr incubation, CellTiter Glo; read-out: NIH/3T3 FGFR3 V555M-TACC3 CTG
Sequence (P22607 whole entry V555M, the tested form may be a part): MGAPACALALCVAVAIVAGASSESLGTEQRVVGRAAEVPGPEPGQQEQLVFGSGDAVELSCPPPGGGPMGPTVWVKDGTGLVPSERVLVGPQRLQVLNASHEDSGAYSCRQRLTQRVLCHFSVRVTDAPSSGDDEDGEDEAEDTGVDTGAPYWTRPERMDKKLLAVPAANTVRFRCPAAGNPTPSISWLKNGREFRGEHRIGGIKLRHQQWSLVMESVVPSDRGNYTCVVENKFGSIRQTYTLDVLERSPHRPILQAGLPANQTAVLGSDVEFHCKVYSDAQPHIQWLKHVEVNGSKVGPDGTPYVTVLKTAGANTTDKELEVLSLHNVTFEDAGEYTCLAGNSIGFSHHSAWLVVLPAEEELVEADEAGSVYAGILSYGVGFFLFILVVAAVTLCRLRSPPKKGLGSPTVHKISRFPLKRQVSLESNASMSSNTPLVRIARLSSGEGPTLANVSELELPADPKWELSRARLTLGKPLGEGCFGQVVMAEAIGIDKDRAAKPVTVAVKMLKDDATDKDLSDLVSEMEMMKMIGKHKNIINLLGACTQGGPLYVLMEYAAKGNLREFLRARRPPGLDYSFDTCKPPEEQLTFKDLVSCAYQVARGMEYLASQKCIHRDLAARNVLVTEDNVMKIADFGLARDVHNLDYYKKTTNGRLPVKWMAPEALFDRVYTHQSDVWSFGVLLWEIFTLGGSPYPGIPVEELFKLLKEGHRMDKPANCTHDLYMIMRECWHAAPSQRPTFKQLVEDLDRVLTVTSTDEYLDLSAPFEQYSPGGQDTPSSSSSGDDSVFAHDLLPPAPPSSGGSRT
Listing of entries alongside the reported log10 GI50.
measured-attribute: log10 GI50 (log10 of the value in nM)

* COC[C@H](Nc1c(-c2nc3ccc(N4C[C@@H](C)O[C@@H](C)C4)nc3[nH]2)c(=O)[nH]c2ccsc12)c1ncccn1 (single isomer, unassigned) | 1.96
* COCC(Nc1c(-c2nc3cnc(N4C[C@@H](C)O[C@@H](C)C4)cc3[nH]2)c(=O)[nH]c2ccsc12)c1ncccn1 (single isomer, unassigned) | 2.45
* C[C@H](Nc1c(-c2nc3cnc(N4CCN(C)CC4)cc3[nH]2)c(=O)[nH]c2ccsc12)c1ncccn1 | 0.67
* CC(C)[C@H](Nc1c(-c2nc3cnc(N4CCN(C)CC4)cc3[nH]2)c(=O)[nH]c2ccsc12)c1ncccn1 (single isomer, unassigned) | 0.70
* C[C@H](Nc1c(-c2nc3cnc(N4CCOCC4)cc3[nH]2)c(=O)[nH]c2ccsc12)c1ncccn1 | 0.09

---

molecular target: human FGFR3 V555L enzyme (cytoplasmic domain carrying V555L mutation) (Homo sapiens, UniProt P22607, V555L); construct: cytoplasmic domain carrying V555L mutation, from Cama Biosciences; experiment: FGFR3 V555L mobility shift assay (enzymatic assay); conditions: 40 μM ATP, 50 minutes at 30° C.; read-out: FGFR3 V555L Caliper
Sequence (P22607 397-806 V555L limits assumed): as the sequence (P22607 397-806 limits assumed) above, with V159L counted along it
pIC50: −log10 of the molar value.
measured-attribute: pIC50

- C[C@H](Nc1c(-c2nc3cnc(N4CCOCC4)cc3[nH]2)c(=O)[nH]c2ccsc12)c1ncccn1: 9.49

---

biological target: NIH/3T3 cells overexpressing FGFR3 WT-TACC3 fusion protein (Homo sapiens); construct: NIH/3T3 FGFR3 WT-TACC3 CTG; other: 72-hr incubation, CellTiter Glo; fused on or other part: C-terminal part of TACC3 (coiled-coil) fused behind the FGFR3 kinase domain; Q9Y6A5 (Transforming acidic coiled-coil-containing protein 3); assay: NIH/3T3 FGFR3 WT-TACC3 cell proliferation assay; assay type: cell-based; conditions: 72-hr incubation, CellTiter Glo; read-out: NIH/3T3 FGFR3 WT-TACC3 CTG
Sequence (P22607 whole entry, change not shown, the tested form may be a part): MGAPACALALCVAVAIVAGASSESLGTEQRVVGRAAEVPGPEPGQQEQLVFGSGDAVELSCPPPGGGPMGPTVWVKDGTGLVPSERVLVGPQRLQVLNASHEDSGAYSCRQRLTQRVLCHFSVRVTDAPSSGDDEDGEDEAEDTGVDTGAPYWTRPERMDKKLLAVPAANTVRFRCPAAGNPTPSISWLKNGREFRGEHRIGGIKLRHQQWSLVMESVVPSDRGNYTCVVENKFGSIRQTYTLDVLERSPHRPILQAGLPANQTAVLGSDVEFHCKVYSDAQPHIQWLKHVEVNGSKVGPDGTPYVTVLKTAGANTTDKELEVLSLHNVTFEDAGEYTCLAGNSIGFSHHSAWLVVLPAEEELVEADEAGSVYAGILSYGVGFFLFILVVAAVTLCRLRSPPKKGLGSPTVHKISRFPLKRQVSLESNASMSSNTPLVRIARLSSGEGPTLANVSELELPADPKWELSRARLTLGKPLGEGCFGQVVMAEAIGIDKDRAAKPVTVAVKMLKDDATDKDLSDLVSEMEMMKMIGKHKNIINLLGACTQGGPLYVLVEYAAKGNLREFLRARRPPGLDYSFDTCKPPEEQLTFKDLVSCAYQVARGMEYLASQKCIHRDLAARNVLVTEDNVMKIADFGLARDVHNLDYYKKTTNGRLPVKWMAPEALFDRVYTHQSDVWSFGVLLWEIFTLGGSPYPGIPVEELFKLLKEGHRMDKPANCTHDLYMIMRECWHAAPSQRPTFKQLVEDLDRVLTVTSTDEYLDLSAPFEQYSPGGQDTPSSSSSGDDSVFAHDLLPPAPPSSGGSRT
// assign 1 if GI50 falls strictly below 4 nM, else 0 (ties count as 0)

- C[C@H](Nc1c(-c2nc3cnc(N4CCN(C)CC4)cc3[nH]2)c(=O)[nH]c2ccsc12)c1ncccn1: 1
- COCC(Nc1c(-c2nc3cnc(N4C[C@@H](C)O[C@@H](C)C4)cc3[nH]2)c(=O)[nH]c2ccsc12)c1ncccn1 (single isomer, unassigned): 0
- C[C@H](Nc1c(-c2nc3cnc(N4CCOCC4)cc3[nH]2)c(=O)[nH]c2ccsc12)c1ncccn1: 1
- COC[C@H](Nc1c(-c2nc3ccc(N4C[C@@H](C)O[C@@H](C)C4)nc3[nH]2)c(=O)[nH]c2ccsc12)c1ncccn1 (single isomer, unassigned): 0
- CC(C)[C@H](Nc1c(-c2nc3cnc(N4CCN(C)CC4)cc3[nH]2)c(=O)[nH]c2ccsc12)c1ncccn1 (single isomer, unassigned): 1
